Recorded values, source ChEMBL document CHEMBL5226291.

- System: SARS-CoV-2
- Format: functional, organism-based
- CONDITION SUMMARY: Severe acute respiratory syndrome coronavirus 2, Vero C1008, 96 h
EXPERIMENTAL ENDPOINT: EC50 (µM)
One number for each entry, in µM.

Exercise: What EC50 appears in the records for this molecule with SARS-CoV-2? `Cc1cc(C(=O)N[C@@H](C)C(=O)N[C@H](C(=O)N[C@@H](CC(C)C)C(=O)N[C@H](/C=C\C(=O)OCc2ccccc2)C[C@@H]2CCNC2=O)C(C)C)no1`
Key: 16.8

* * *

Hi there, I'd appreciate the recorded pEC50 for every entry that follows.
- System: SARS-CoV-2
- Format: functional, organism-based
- CONDITION SUMMARY: Severe acute respiratory syndrome coronavirus 2, Vero C1008, 48 h
Give bare numbers, as −log10 of the molar value.

MOLECULE: CCN(CC)CCCC(C)Nc1ccnc2cc(Cl)ccc12 (configuration not stated)
TESTED SYSTEM: SARS-CoV-2
TEST VALUE: 5.95

Exercise: GET /values?readout=pEC50&system=SARS-CoV-2&item= `Cc1cccc(C)c1OCC(=O)N[C@@H](Cc1ccccc1)[C@@H](O)C[C@H](Cc1ccccc1)NC(=O)[C@H](C(C)C)N1CCCNC1=O`
Key: 4.58

* * *

What IC50 was measured for each of the following?
- TESTED SYSTEM: Disintegrin and metalloproteinase domain-containing protein 17 (Mus musculus)
- Sequence (Q9Z0F8 whole entry, the tested form may be a part): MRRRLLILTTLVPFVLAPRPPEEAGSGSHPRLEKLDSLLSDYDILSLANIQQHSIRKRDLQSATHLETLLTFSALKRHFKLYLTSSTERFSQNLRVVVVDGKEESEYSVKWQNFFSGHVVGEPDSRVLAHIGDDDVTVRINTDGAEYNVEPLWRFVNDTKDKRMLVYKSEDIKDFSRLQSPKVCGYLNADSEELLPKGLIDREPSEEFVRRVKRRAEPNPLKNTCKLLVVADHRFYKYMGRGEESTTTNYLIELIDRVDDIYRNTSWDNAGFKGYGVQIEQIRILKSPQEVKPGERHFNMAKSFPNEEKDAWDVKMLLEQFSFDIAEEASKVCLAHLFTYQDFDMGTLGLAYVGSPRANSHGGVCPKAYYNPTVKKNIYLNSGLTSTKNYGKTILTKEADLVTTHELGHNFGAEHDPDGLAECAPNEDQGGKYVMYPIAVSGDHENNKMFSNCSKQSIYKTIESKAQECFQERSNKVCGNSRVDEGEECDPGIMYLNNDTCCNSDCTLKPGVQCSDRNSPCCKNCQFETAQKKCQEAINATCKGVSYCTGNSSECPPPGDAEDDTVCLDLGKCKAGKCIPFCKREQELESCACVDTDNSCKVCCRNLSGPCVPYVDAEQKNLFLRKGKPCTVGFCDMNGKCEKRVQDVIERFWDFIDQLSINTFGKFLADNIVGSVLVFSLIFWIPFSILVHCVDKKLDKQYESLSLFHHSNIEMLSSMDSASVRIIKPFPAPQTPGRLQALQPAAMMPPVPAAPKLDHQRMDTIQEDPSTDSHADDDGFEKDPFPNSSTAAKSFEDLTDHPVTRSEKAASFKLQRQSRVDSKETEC
- EXPERIMENT SUMMARY: Inhibition of mouse ADAM17 expressed in HEK293 cells overexpressed with ACE2 assessed as inhibition of ACE2 shedding incubated for 65 mins in presence of PMA by immunoblotting assay
Numbers only, in nM.

COMPOUND: CC(C)CC(CC(=O)NO)C(=O)N[C@H](C(=O)N[C@@H](C)C(=O)NCCN)C(C)(C)C (some centres not stated)
TESTED SYSTEM: Disintegrin and metalloproteinase domain-containing protein 17 (Mus musculus)
IC50 / nM: 200

// next entry
Exercise: Recorded IC50 for `CC(C)C[C@H](CC(=O)NO)C(=O)N[C@@H](Cc1ccc2ccccc2c1)C(=O)N[C@@H](C)C(N)=O` with Disintegrin and metalloproteinase domain-containing protein 17 (Mus musculus), please?
Key: 100

* * *

Assignment: determine reported CC50 for the given compounds.
- EXPERIMENT SUMMARY: Cytotoxicity against human HEK293T cells by XTT assay
- Format: toxicity, cell-based, HEK-293T

COMPOUND SMILES: CN1CCN(c2ccc(CNC(=O)c3ccno3)cc2)CC1
CC50: > 100 µM

Exercise: Would you kindly share the measured CC50 for `C/C(=N\NC(N)=S)c1cccs1` ?
Key: < 100 µM

* * *

Exercise: state measured CC50 for each of the compounds provided.
- EXPERIMENT SUMMARY: Cytotoxicity against African green monkey Vero E6 cells by MTT assay
- Assay type: toxicity, cell-based, Vero C1008
- CONDITION SUMMARY: chlorocebus sabaeus
Give bare numbers, in nM.

Consider the worked cases shown below.
COMPOUND SMILES: O=c1c(O)c(-c2ccc(O)c(O)c2)oc2cc(O)cc(O)c12
CC50 (nM): 3320
--
COMPOUND SMILES: O=c1cc(-c2ccc(O)c(O)c2)oc2cc(O)cc(O)c12
CC50 (nM): 155

// switching to the query compound
Exercise: I'd like to know its CC50. The compound in question is `O=C(OC[C@H]1O[C@@H](OC(=O)c2cc(O)c(O)c(O)c2)[C@H](OC(=O)c2cc(O)c(O)c(O)c2)[C@H](OC(=O)c2cc(O)c(O)c(O)c2)[C@@H]1O)c1cc(O)c(O)c(O)c1`
Key: 1080
